# Test system: NCI-H226 lung
# Protocol description: NCI-60 one-dose screen, 48 h
# Study conditions: 10 µM unless noted
This is part of a sample that, as a whole, favours compounds with a hit. Of some 83,000 tested, about 20% had one in any assay. Calls of active or inactive are those of the source. How the source made its calls: active means growth percent below 10; inactive means the rest.
Select the matching outcome among 1 (active), 0 (inactive)

query: So what was the verdict on "Cc1[nH]c(C(=O)Nc2ccccc2OC2CCN(CCN3CCOCC3)CC2)c(Cl)c1Cl" in this test?
result: 0

query: Which result was noted for this compound in the test: "O=C(NNc1nc2cc(F)ccc2n2c(CN3CCOCC3)ccc12)c1ccccc1"
result: 0

query: Hi, do you know how "CCOC(=O)NC(=S)n1oc(=O)c2ccccc21" came out in this test?
result: 0

query: How was "O=c1oc2c(cnc3ccccc32)cc1-c1cccc(Cl)c1" classified in this test?
result: 0

query: What classification did "O=C(/C=C/c1ccccc1)c1ccc(-n2cc(CN3CCN(c4cc5c(cc4F)c(=O)c(C(=O)O)cn5C4CC4)CC3)nn2)cc1" end up with in this test?
result: 0

query: Tell me the assay call for "c1cc(OCCN2CCCCC2)ccc1CNc1ccc2nc(CCC3CCCCC3)[nH]c2c1" please.
result: 0

query: Dear colleague, could you share the recorded outcome for CS(=O)/C(C#N)=C\C=C\c1cccc(Cl)c1 (centres undefined) when you have a moment?
result: 0

query: For this compound, state the assay outcome: "CCOC(=O)c1c(NC(=O)c2ccccc2)sc2c3c(ccc12)OCN(C)C3"
result: 0

query: Write down the call the test reported for this compound. Item: C#Cc1cccc(NC(=O)C2CCCCN2C(=O)CCl)c1 (centres undefined)
result: 1

====

# System: OVCAR-8 ovarian
# Protocol description: NCI-60 one-dose screen, 48 h
# Study conditions: 10 µM unless noted
This is part of a sample that, as a whole, favours compounds with a hit. Of some 83,000 tested, about 20% had one in any assay. Calls of active or inactive are those of the source. How the source made its calls: active means growth percent below 10; inactive means the rest.
Form entry, call: pick from yes (1) (active), no (0) (inactive)

• O=C(CN1C(=O)S/C(=C\C(Cl)=C\c2ccccc2)C1=O)NC1CCS(=O)(=O)C1 (stereo not given) = no (0)
• C=C(C)[C@@H]1CC[C@]2(COC3CCCCO3)CC[C@]3(C)[C@H](CC[C@@H]4[C@@]5(C)C=C(C=O)C(=O)C(C)(C)[C@@H]5CC[C@]43C)[C@@H]12 (stereo not given in full) = yes (1)
• O=C(Nc1ncc(Cc2ccccc2)s1)c1sc2ccccc2c1Cl = no (0)
• Cc1ccc(NC(=O)c2cc3ccccc3cc2O)c(C)c1 = no (0)

Consider now this further molecule.
query: What did the test return for "CCOC(=O)c1c(NC(=O)c2ccccc2)sc2c3c(ccc12)OCN(C)C3" ?
result: no (0)

====

# Tested on: MDA-MB-231 breast
# Protocol description: NCI-60 one-dose screen, 48 h (100 = growth as untreated, 0 = no growth, -100 = all killed)
# Study conditions: 10 µM unless noted
About 83,000 compounds went through this panel and 20% of them were active in at least one assay; those are over-represented in the sample as a whole.
// reported growth for each item listed
Could you give me the number in %? Just the number is fine.

Example results:
* CN(C)c1ccc([C@@H](C(=O)Nc2cccc([N+](=O)[O-])c2)N(C(=O)c2cc3ccccc3[nH]2)c2cccc([N+](=O)[O-])c2)cc1 | 96.5
* NS(=O)(=O)c1ccc(C(=O)NN2C(=O)c3ccccc3C2=O)cc1 | 109

Consider the additional molecule presented here.
query: Look at this molecule and give its reported growth. "CCN(CC)CCOc1ccc(Nc2ncc3cc(-c4c(Cl)cccc4Cl)c(=O)n(CCOC)c3n2)cc1"
result: -73.2

====

The entries below are paired with their reported growth.
# Test system: MOLT-4 leukemia
# Protocol description: NCI-60 one-dose screen, 48 h (100 = growth as untreated, 0 = no growth, -100 = all killed)
# Study conditions: 10 µM unless noted
Compounds without any hit were thinned out: in the full panel of roughly 83,000, 20% have a hit.
# unit: % | format: bare number

query: Entry "NS(=O)(=O)c1ccc(C(=O)N=Nc2c(O)[nH]c3ccc(Cl)cc23)cc1" has what growth?
result: 107

query: Item under review: "COc1cc2c(cc1OCCCN1CCN(C(=S)SCCC(C#N)(c3ccccc3)c3ccccc3)CC1)N=C[C@@H]1CCCN1C2=O" . Reported growth?
result: -8.92

query: Give its growth value. Item: "O=C(c1c[nH]c2ccccc12)c1n[nH]c(=S)n1-c1ccc([N+](=O)[O-])cc1"
result: 86

query: Given the entry O=CN1N=C(c2cccc(Nc3ccnc4cc(Cl)ccc34)c2)CC1c1ccc(Cl)cc1 (stereo unspecified) , report its measured growth.
result: 13.7

query: So what's the measured growth for this one? "Cc1ccc(OCCOCCOCCOCCOCCOc2ccc(C)n(O)c2=S)c(=S)n1O"
result: 2.29

query: // query growth value for entry "COc1cc(/C=C2\C(=O)N(CCCOc3cc(O)c4c(=O)cc(-c5ccccc5)oc4c3)c3ccccc32)cc(OC)c1O"
result: 64.7

query: I'd like to know its growth. The compound in question is "CCN1C2CCC1/C(=C\c1ccccc1)C(=O)/C2=C/c1ccccc1"
result: 31

====

# System: OVCAR-5 ovarian
# Protocol description: NCI-60 one-dose screen, 48 h (100 = growth as untreated, 0 = no growth, -100 = all killed)
# Study conditions: 10 µM unless noted
The panel holds about 83,000 compounds, 20% with a hit somewhere; the sample as a whole holds those more often. Activity calls are given as the source filed them. How the source made its calls: active means growth percent below 10; inactive means the rest.
Listing of recorded growth by entry.

Here's what some known entries look like.
* [N-]=[N+]=NCC1OC(n2cnc3c(NC(=O)Nc4ccccc4)ncnc32)C2OC(=O)CC12 (centres undefined) | 95.7% (inactive)
* CN(C)C1CN(C(=O)c2cc(-c3ccc4ncnc(N5CCc6cc(F)c(Cl)cc65)c4c3)cnc2N)C1 | 28.1% (inactive)
* COc1ccccc1S(=O)(=O)Nc1ccc2c3c(cc(CCC(=O)NCCCCNc4cccc5c4C(=O)N(C4CCC(=O)NC4=O)C5=O)cc13)C(=O)N2C (centres undefined) | 42% (inactive)

query: If you can, please state the reported growth value of "O=C1O[C@@H](c2ccccc2Cl)[C@@H]2c3cc4c(cc3CCN12)OCO4" .
result: 113% (inactive)

====

# Tested on: SW-620 colon
# Protocol description: NCI-60 one-dose screen, 48 h
# Study conditions: 10 µM unless noted
This is part of a sample that, as a whole, favours compounds with a hit. Of some 83,000 tested, about 20% had one in any assay. Activity calls are given as the source filed them. The calls were made as follows: active = growth percent below 10; inactive = the rest.
Your answer must be one of the following: active, inactive

Examples from the recorded data:
- c1ccc(-c2ccc3c(c2)C2(CCNCC2)CN3)cc1: inactive
- COC(=O)c1c2c(c(C)[n+]([O-])c1C)C(=O)C(NCc1ccccc1)=CC2=O: active
- Cc1ccc(C)c2c1sc1nc(N3CCOCC3)c(C#N)c(=O)n12: inactive
- Cc1cc(O)c(=O)cc2c1C[C@H]1CC(C)(C)/C=C/C[C@]3(C)Oc4cc(=O)c(O)cc(C)c4C[C@H]3C[C@H](O)[C@@]1(C)O2: inactive
- N#Cc1c(-c2ccccc2)cc(-c2ccccc2)n(CCCCC(=O)NO)c1=O: inactive

query: # outcome recorded in this test, key = "CC1(C)N=C(N)N=C(N)N1c1ccc(S(=O)(=O)Nc2nccs2)cc1"
result: inactive

====

# Tested on: SNB-19 CNS
# Protocol description: NCI-60 one-dose screen, 48 h (100 = growth as untreated, 0 = no growth, -100 = all killed)
# Study conditions: 10 µM unless noted
This is part of a sample that, as a whole, favours compounds with a hit. Of some 83,000 tested, about 20% had one in any assay.
Listed here are molecules together with their documented growth.
Numbers only here, please. The scale is %.

Some solved cases for reference:
* COc1ccc(C(=O)Nc2ncc(Cc3ccc(Cl)cc3)s2)cc1 | 23.9
* CCOC(=O)c1cn2ncnc(Oc3ccc(NC(=O)NC4CC4)c(Cl)c3)c2c1C | 89
* C=CN(C(=O)N1CCN(c2cc3c(cc2F)c(=O)c(C(=O)O)cn3C2CC2)CC1)c1nc(-c2ccc(Cl)cc2)cs1 | 59.5

--- query ---
query: Report growth for COc1ccc(C(O)c2cc3c(N)c(C(=O)Nc4cccc5ccccc45)sc3nc2C)cc1 (centres undefined) please.
result: 25

====

Recorded growth by entry
# Tested on: SK-MEL-5 melanoma
# Protocol description: NCI-60 one-dose screen, 48 h (100 = growth as untreated, 0 = no growth, -100 = all killed)
# Study conditions: 10 µM unless noted
About 83,000 compounds went through this panel and 20% of them were active in at least one assay; those are over-represented in the sample as a whole.
// note: answer is a bare numeric in %

Use the examples below as a reference point.
- CN1CCN(c2ccc(NC3=CC(=O)c4ncncc4C3=O)cc2)CC1: -94
- O=C1/C(=C/c2ccccn2)SC(=S)N1N1CCOCC1: 99.2
- CCOC(=O)NCCCC(=O)NCCc1ccccc1: 99.8
- Cc1c2cnccc2c(C)c2c1c1cc(CO)ccc1n2C: -96.8
- CN(C)C1CN(C(=O)c2cc(-c3ccc4ncnc(N5CCc6cc(F)c(Cl)cc65)c4c3)cnc2N)C1: -20.8
- CC(C)(C)c1ccc(C(=O)N/N=C/c2ccc(O)cc2O)cc1: -46.1
- COc1ccccc1/C=C/C(=O)Nc1ccc(F)cc1: 95.1
- O=C(O)CC(C(=O)O)/C(=C\c1ccccc1)c1ccccc1 (stereo not given): 94.8

query: Recall the recorded growth for "CCOC(=O)C/C(=N\Nc1cc(=O)[nH]c2ccc(OC)cc12)C(=O)OCC" with SK-MEL-5 melanoma and state it.
result: 99.7

query: Lab note: need growth with SK-MEL-5 melanoma for entry "CCCCn1c(NC(C)=O)c(S(=O)(=O)c2ccccc2)c2nc3ccccc3nc21" , please look it up.
result: 100
